Values compiled from patent US20190127480A1.

Provide the recorded pKd for the entries that follow.
biological target: T1, Soluble heterodimeric CD3 protein (hCD3-epsilon/hCD3-delta) with a human Fc tag (hFcΔAdp/hFc) or a mouse Fc … (human, UniProt P07766 23-126; P04234 22-105); experiment: SPR Biacore, 25 C, antibody-capture format
T1 construct: also called hCD3ε/δ; not shown: Fc tag: human (hFcΔAdp/hFc); which tag was used in Ta
T1 sequence (P07766 23-126 limits assumed, stated change not applied, chain 1 of 2): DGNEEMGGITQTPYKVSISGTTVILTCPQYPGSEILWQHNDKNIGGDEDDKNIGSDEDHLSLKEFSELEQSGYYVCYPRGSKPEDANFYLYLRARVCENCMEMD
T1 sequence (P04234 22-105 limits assumed, stated change not applied, chain 2 of 2): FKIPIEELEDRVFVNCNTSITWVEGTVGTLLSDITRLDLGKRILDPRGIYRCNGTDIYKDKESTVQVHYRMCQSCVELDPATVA
Recall that pKd is obtained by taking minus log10 of the concentration measured in molar.

May I ask what pKd has been recorded for H2M3543N (antibody, V domains shown, Hybridoma antibody, human variable regions, mouse IgG2 Fc) VH: EVQLVESGGGLVQPGRSLRLSCAASGFTFDDYTMHWVRQAPGKGLEWVSDISWNSGSIGYADSVKGRFTVSRDNAKNSLYLQMNSLRGEDTALYYCAKDMSGYAHYGYYGMDVWGQGTTVTVSS VL: DIQMTQSPSSLSASVGDRVTITCRASQSIRNYLNWYQQKPGKVPKLLIYAASSLQSGVPSRFSGSGSGTDFTLTISSLQPEDFATYYCQQSYSNPPITFGQGTRLEIK ?
7.52

Requested read-out: pKd. Entry: H2M2708N (antibody, V domains shown, Hybridoma antibody, human variable regions, mouse IgG2 Fc) VH: QVQLVESGGGVVQPGRSLRLSCAASGFTFRSFGMHWVRQAPGRGLEWVAMIYFDGKNKYYADSVRGRFTISRDNSKNTLYLEMSSLRAEDTAVYFCARGPGYNWLDPWGQGTLVTVSS VL: EIVMTQSPATLSVSPGERVTLSCRASQSISRNLAWYQQKPGQAPRLLIYGASTRATGVPARFSGSGSGTEFTLTISSLQSEDFAVFHCQQYNNRPLTFGGGTEVEIK
8.05

# get_value(readout='pKd', item= H2M2707N (antibody, V domains shown, Hybridoma antibody, human variable regions, mouse IgG2 Fc) VH: QVQLVESGGGVVQPGRSLRLSCIASGFTFRSYGMHWVRQAPGKGLEWVAMIYYDGNNKYYADSVRGRFTISRDNSKNTLYLQMNSLRADDTAVYFCARGPGYNWLDPWGQGTLVTVSS VL: EIVMTQSPATLSVSPGERATLSCRASQSVSSNLAWYQQKPGQAPRLLIYGASTRATGIPARFSGSGSGTEFTLTISSLQSEDFAVYYCQQYNNRPLTFGGGTKVEIK )
7.20

For the binder shown here, H2M2862N (antibody, V domains shown, Hybridoma antibody, human variable regions, mouse IgG2 Fc) VH: QVQLVESGGGVVQPGRSLRLSCAASGFTFRSYGMHWVRQAPGKGLEWVAMIYYDGNNKKYADSVRGRFTISRDNSKNTLYLQMNSLRVEDTAVYFCARGPGYNWLDPWGQGTLVTVSS VL: EIVMTQSPATLSVSPGERATLSCRASQSVSRNLAWYQQKPGQAPRLLIYGASTRATDIPARFSGSGSGTEFILNISSLQSEDFALYYCQQYSNWPLTFGGGTEVEIK , give the reported pKd.
7.09

Suppose we examine the binder H2M3540N (antibody, V domains shown, Hybridoma antibody, human variable regions, mouse IgG2 Fc) VH: QVHLEESGGGVVQPGRSLRLSCSASGFTFSSYAMHWVRQAPGKGLEWVAVIWYDGTNKYYLDSVKGRFTISRDNSKNTLFLQMNSLRAEDTAVYYCARDRGSIITHWGQGTLVTVSS VL: DIQMTQSPSSLSASIGDRVTITCRASQNISSYLNWYQQKPGKAPKLLIYAASSLQSGVPSRFSGSGSGTDFTLTISSLQPEDFATYYCQQTYSTPPITFGQGTRLEIK ; what pKd value has been reported?
7.79
